# Test system: KRAS G12C mutant NCI-H358 cells
# assay.method.text: Cell proliferation inhibition experiment, 3D spheroid, CellTiter-Glo, NCI-H358
# Format: cell-based, human
# cond: Homo sapiens, NCI-H358, 120 h, NCI-H358 (KRAS G12C mutant) 3D spheroid, 5 days with compound, CellTiter-Glo; read-out: H358 IC50
# Procedure: […] NCI-H358 is a KRAS G12C mutant human non-small cell lung cancer cell line, cultured in 10% FBS RPMI-1640+1% PS culture medium; and A549 is a KRAS G12S mutant human lung adenocarcinoma cell line, cultured in 10% FBS F-12K+1% PS culture medium. Cells at logarithmic growth stage were taken, digested with trypsin-EDTA, then collected and counted. […] The cell proliferation inhibition rate IR (%)=(RLU control -RLU compound)/(RLU control -RLU blank) x100% was calculated. […]
property: IC50 (nM)
Numbers only, in nM.

In [3]: df
Out[3]:
                                   compound  property  recorded_value
0  C=CC(=O)N1CCN2C(=O)c3c(N4C[C@@H](N(C)C)CC4(C)C)nc(-c4c(F)ccc(F)c4O)c(Cl)c3OC[C@H]2C1      IC50               2
1  C=CC(=O)N1CCN2C(=O)c3c(N4CC(O)CC4(C)C)nc(-c4ccccc4Cl)c(F)c3OC[C@H]2C1 (stereo partly drawn)      IC50              19
2  C=CC(=O)N1CCN2C(=O)c3c(N4C[C@H](N(C)C)CC4(C)C)nc(-c4c(F)ccc(F)c4O)c(Cl)c3OC[C@H]2C1 (single isomer, unassigned)      IC50               8
3  C=CC(=O)N1CCN2C(=O)c3c(N4[C@H](C)COC[C@@H]4C)nc(-c4c(O)cccc4F)c(Cl)c3OC[C@H]2C1      IC50             144
4  C=CC(=O)N1CCN2C(=O)c3c(N4CCN(C)C[C@@H]4C)nc(-c4nc(N)cc(C)c4C(F)(F)F)c(Cl)c3OC[C@H]2C1      IC50             2.2

Next compound, IC50 to be filled in.
Quick check: IC50 of "C=CC(=O)N1CCN2C(=O)c3c(N4CCN(C)C[C@@H]4C)nc(-c4ccccc4Cl)c(Cl)c3OC[C@H]2C1" ?
24

---

# test.target: KRAS G12C (Homo sapiens, UniProt P01116, G12C)
# Sequence (P01116 1-188 isoform P01116-2 G12C): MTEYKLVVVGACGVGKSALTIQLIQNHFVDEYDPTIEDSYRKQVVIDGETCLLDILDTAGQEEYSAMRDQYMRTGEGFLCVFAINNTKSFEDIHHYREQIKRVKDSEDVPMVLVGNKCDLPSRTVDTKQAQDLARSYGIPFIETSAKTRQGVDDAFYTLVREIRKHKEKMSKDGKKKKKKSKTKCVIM
# assay.method.text: KRAS G12C NEA-HTRF experiment (SOS1-catalyzed displacement of GDP by GTP)
Task for the reader: assign each of the following compounds its reported IC50.
Answer format: number, then unit.

                                   compound  recorded_value
0  C=CC(=O)N1CCN2C(=O)c3c(N4C[C@](C)(O)CC4(C)C)nc(-c4c(O)cccc4F)c(Cl)c3OC[C@H]2C1 (single isomer, unassigned)           76 nM

Could you report IC50 for every entry in the following list?
1. C=CC(=O)N1CCN2C(=O)c3c(N4C[C@H](C)N(C)C[C@@H]4C)nc(-c4ccccc4F)c(Cl)c3OC[C@H]2C1
2. C=CC(=O)N1CCN2C(=O)c3c(N4C[C@@H](N5CC(OC)C5)CC4(C)C)nc(-c4ccccc4F)c(Cl)c3OC[C@H]2C1
3. C=CC(=O)N1CCN2C(=O)c3c(N4CCN(C)C[C@@H]4C)nc(-c4c(F)cccc4C(F)F)c(Cl)c3OC[C@H]2C1
4. C=CC(=O)N1CCN2C(=O)c3c(N4CCN(CCOC)C(C)(C)C4)nc(-c4ccccc4F)c(Cl)c3OCC2C1 (centres unmarked)
5. C=CC(=O)N1CCN2C(=O)c3c(N4CC[C@@H](N(C)C)C4(C)C)nc(-c4c(O)cccc4F)c(Cl)c3OC[C@H]2C1 (single isomer, unassigned)
6. C=CC(=O)N1CCN2C(=O)c3c(N4C[C@@H](N5CC(F)(F)C5)CC4(C)C)nc(-c4ccccc4F)c(Cl)c3OC[C@H]2C1 (single isomer, unassigned)
7. C=CC(=O)N1CCN2C(=O)c3c(N4CCC[C@H]4C)nc(-c4c(O)cccc4F)c(Cl)c3OC[C@H]2C1
8. C=CC(=O)N1CCN2C(=O)c3c(N4C[C@H](O)CC4(C)C)nc(-c4c(O)cccc4F)c(Cl)c3OC[C@H]2C1 (single isomer, unassigned)

1. 340 nM
2. 65.2 nM
3. 147 nM
4. 423 nM
5. 98.1 nM
6. 38.5 nM
7. 150 nM
8. 44 nM

Could you report IC50 for every entry in the following list?
1. C=CC(=O)N1CCN2C(=O)c3c(N4C[C@H](N5CCN(C)CC5)C[C@@H]4C)nc(-c4ccccc4F)c(Cl)c3OC[C@H]2C1
2. C=CC(=O)N1CCN2C(=O)c3c(N4CCN(C)[C@H](C)[C@@H]4C)nc(-c4c(O)cccc4F)c(Cl)c3OC[C@H]2C1 (relative stereo) [Z465]

1: 258 nM; 2: 275 nM

Could you report IC50 for every entry in the following list?
1. C=CC(=O)N1CCN2C(=O)c3c(N4CCN(S(C)(=O)=O)C[C@@H]4C)nc(-c4c(O)cccc4F)c(Cl)c3OC[C@H]2C1
2. C=CC(=O)N1CCN2C(=O)c3c(N4CC(N(C)CC(F)F)CC4(C)C)nc(-c4ccccc4F)c(Cl)c3OC[C@H]2C1 (some centres unmarked)
3. C=CC(=O)N1CCN2C(=O)c3c(N4C[C@@H](C)N(C)C[C@@H]4C)nc(-c4ccccc4F)c(Cl)c3OC[C@H]2C1

["37 nM", "19.4 nM", "1930 nM"]
